PROTOCOL DESCRIPTION: Non-specific binding of drugs in human liver microsomes (fu,mic), rapid equilibrium dialysis
Assay type: in vitro ADME
CONDITION DETAILS: unbound drug fraction in the microsomal mixture, HLM 0.5 mg/ml, inhibitor 1 µM, 37 °C, read-out: fu,mic at 0.5 mg/ml
MEASUREMENT LABEL: fraction unbound at 4 h, 1 µM
Please respond with just the number, no unit label.

[
  {
    "COMPOUND": "C[C@@H](Oc1cc(-c2cnn(C3CCNCC3)c2)cnc1N)c1c(Cl)ccc(F)c1Cl [Crizotinib]",
    "fraction unbound at 4 h, 1 µM": 0.118
  },
  {
    "COMPOUND": "CCc1nn(CCCN2CCN(c3cccc(Cl)c3)CC2)c(=O)n1CCOc1ccccc1 [Nefazodone]",
    "fraction unbound at 4 h, 1 µM": 0.18
  },
  {
    "COMPOUND": "COc1ccc([C@@H]2Sc3ccccc3N(CCN(C)C)C(=O)[C@@H]2OC(C)=O)cc1 [Diltiazem]",
    "fraction unbound at 4 h, 1 µM": 0.708
  },
  {
    "COMPOUND": "CC[C@H]1OC(=O)[C@H](C)[C@@H](O[C@H]2C[C@@](C)(OC)[C@@H](O)[C@H](C)O2)[C@H](C)[C@@H](O[C@@H]2O[C@H](C)C[C@H](N(C)C)[C@H]2O)[C@](C)(O)C[C@@H](C)C(=O)[C@H](C)[C@@H](O)[C@]1(C)O [Erythromycin]",
    "fraction unbound at 4 h, 1 µM": 0.586
  },
  {
    "COMPOUND": "Cc1cn(-c2cc(NC(=O)c3ccc(C)c(Nc4nccc(-c5cccnc5)n4)c3)cc(C(F)(F)F)c2)cn1 [Nilotinib]",
    "fraction unbound at 4 h, 1 µM": 0.121
  }
]

Read the next record carefully.
The compound listed as CC[C@H]1OC(=O)[C@H](C)[C@@H](O[C@H]2C[C@@](C)(OC)[C@@H](O)[C@H](C)O2)[C@H](C)[C@@H](O[C@@H]2O[C@H](C)C[C@H](N(C)C)[C@H]2O)[C@](C)(O)C[C@@H](C)/C(=N\OCOCCOC)[C@H](C)[C@@H](O)[C@]1(C)O [Roxithromycin] shows fraction unbound at 4 h, 1 µM equal to 0.612

---

STUDY SYSTEM: UniProt P08684
PROTOCOL DESCRIPTION: in vitro
CONDITION DETAILS: microsomes, pH 7.4
MEASUREMENT LABEL: IC50 at 5 min (µM)
// units = µM; emit number, no label

Would you please look over these solved cases?
[
  {
    "COMPOUND": "Cc1cn(-c2cc(NC(=O)c3ccc(C)c(Nc4nccc(-c5cccnc5)n4)c3)cc(C(F)(F)F)c2)cn1 [Nilotinib]",
    "UNITS SYMBOL": "µM",
    "IC50 at 5 min": 1.31
  },
  {
    "COMPOUND": "CC[C@H]1OC(=O)[C@H](C)C(=O)[C@H](C)[C@@H](O[C@@H]2O[C@H](C)C[C@H](N(C)C)[C@H]2O)[C@](C)(OC)C[C@@H](C)C(=O)[C@H](C)[C@H]2N(CCCCn3cnc(-c4cccnc4)c3)C(=O)O[C@]12C [Telithromycin]",
    "UNITS SYMBOL": "µM",
    "IC50 at 5 min": 14.1
  },
  {
    "COMPOUND": "CCc1nn(CCCN2CCN(c3cccc(Cl)c3)CC2)c(=O)n1CCOc1ccccc1 [Nefazodone]",
    "UNITS SYMBOL": "µM",
    "IC50 at 5 min": 2.59
  }
]

Next compound, IC50 at 5 min to be filled in.
Value of measured IC50 at 5 min for the entry CC[C@H]1OC(=O)[C@H](C)[C@@H](O[C@H]2C[C@@](C)(OC)[C@@H](O)[C@H](C)O2)[C@H](C)[C@@H](O[C@@H]2O[C@H](C)C[C@H](N(C)C)[C@H]2O)[C@](C)(O)C[C@@H](C)/C(=N\OCOCCOC)[C@H](C)[C@@H](O)[C@]1(C)O [Roxithromycin] : 82.4

---

System: human hepatocytes
PROTOCOL DESCRIPTION: Intracellular drug accumulation ratio (Kp) and intracellular bioavailability (Fic) in cryopreserved human hepatocytes
Format: in vitro ADME
CONDITION DETAILS: intracellular bioavailability = fu,cell × Kp; human hepatocytes
Listing: Fic of selected compounds

Given the compound `CC[C@H]1OC(=O)[C@H](C)[C@@H](O[C@H]2C[C@@](C)(OC)[C@@H](O)[C@H](C)O2)[C@H](C)[C@@H](O[C@@H]2O[C@H](C)C[C@H](N(C)C)[C@H]2O)[C@](C)(O)C[C@@H](C)/C(=N\OCOCCOC)[C@H](C)[C@@H](O)[C@]1(C)O` and test system human hepatocytes, the measured Fic is 0.13 ± 0.01

The compound `Cc1cn(-c2cc(NC(=O)c3ccc(C)c(Nc4nccc(-c5cccnc5)n4)c3)cc(C(F)(F)F)c2)cn1` , tested on human hepatocytes, showed Fic of 0.022 ± 0.001

Record for `CC[C@H]1OC(=O)[C@H](C)C(=O)[C@H](C)[C@@H](O[C@@H]2O[C@H](C)C[C@H](N(C)C)[C@H]2O)[C@](C)(OC)C[C@@H](C)C(=O)[C@H](C)[C@H]2N(CCCCn3cnc(-c4cccnc4)c3)C(=O)O[C@]12C` under target or system human hepatocytes: Fic reported as 0.25 ± 0.03

Assay human hepatocytes, sample `C[C@@H](Oc1cc(-c2cnn(C3CCNCC3)c2)cnc1N)c1c(Cl)ccc(F)c1Cl` , Fic read: 0.044 ± 0.005

Param item: `CC[C@H]1OC(=O)[C@H](C)[C@@H](O[C@H]2C[C@@](C)(OC)[C@@H](O)[C@H](C)O2)[C@H](C)[C@@H](O[C@@H]2O[C@H](C)C[C@H](N(C)C)[C@H]2O)[C@](C)(O)C[C@@H](C)C(=O)[C@H](C)[C@@H](O)[C@]1(C)O` ; param system: human hepatocytes; output Fic: 0.066 ± 0.104

Response field Fic (human hepatocytes) for item `CCc1nn(CCCN2CCN(c3cccc(Cl)c3)CC2)c(=O)n1CCOc1ccccc1` : 0.015 ± 0.002

---

STUDY SYSTEM: CYP3A (Homo sapiens, UniProt P08684)
Sequence (P08684 2-503): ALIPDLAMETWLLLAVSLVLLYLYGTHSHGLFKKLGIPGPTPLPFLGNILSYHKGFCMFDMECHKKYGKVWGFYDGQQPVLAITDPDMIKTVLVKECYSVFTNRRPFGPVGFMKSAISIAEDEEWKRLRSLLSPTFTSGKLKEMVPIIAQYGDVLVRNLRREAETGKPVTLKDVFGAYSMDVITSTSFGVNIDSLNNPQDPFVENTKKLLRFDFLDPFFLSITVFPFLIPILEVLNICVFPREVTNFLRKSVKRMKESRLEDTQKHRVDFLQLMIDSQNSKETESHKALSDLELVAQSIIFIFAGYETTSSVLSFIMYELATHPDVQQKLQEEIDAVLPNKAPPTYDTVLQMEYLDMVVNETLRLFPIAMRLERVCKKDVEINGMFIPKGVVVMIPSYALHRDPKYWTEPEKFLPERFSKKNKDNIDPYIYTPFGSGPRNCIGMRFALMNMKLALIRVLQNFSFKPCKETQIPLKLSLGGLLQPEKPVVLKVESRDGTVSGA
PROTOCOL DESCRIPTION: in vitro
CONDITION DETAILS: microsomes, pH 7.4
MEASUREMENT LABEL: Ki (nM)
Express the result in nM but write the number alone.

The reported Ki of the molecule `C[C@@H](Oc1cc(-c2cnn(C3CCNCC3)c2)cnc1N)c1c(Cl)ccc(F)c1Cl` was 90

---

STUDY SYSTEM: UniProtKB P08684
PROTOCOL DESCRIPTION: in vitro
CONDITION DETAILS: pH 7.4, KI,u, calculated as fu,mic at 0.5 mg/ml × KI
Below: a set of entries, each annotated with reported KI (inactivation).
The answer is to be given in nM; state only the numeric part.

Some molecules with known KI (inactivation) results, for comparison:
[
  {
    "MOLECULE": "Cc1cn(-c2cc(NC(=O)c3ccc(C)c(Nc4nccc(-c5cccnc5)n4)c3)cc(C(F)(F)F)c2)cn1 [Nilotinib]",
    "STUDY SYSTEM": "UniProtKB P08684",
    "MEASUREMENT LABEL": "KI (inactivation)",
    "OBSERVED MEASUREMENT": 156
  },
  {
    "MOLECULE": "CC[C@H]1OC(=O)[C@H](C)[C@@H](O[C@H]2C[C@@](C)(OC)[C@@H](O)[C@H](C)O2)[C@H](C)[C@@H](O[C@@H]2O[C@H](C)C[C@H](N(C)C)[C@H]2O)[C@](C)(O)C[C@@H](C)/C(=N\\OCOCCOC)[C@H](C)[C@@H](O)[C@]1(C)O [Roxithromycin]",
    "STUDY SYSTEM": "UniProtKB P08684",
    "MEASUREMENT LABEL": "KI (inactivation)",
    "OBSERVED MEASUREMENT": 19200
  },
  {
    "MOLECULE": "CC[C@H]1OC(=O)[C@H](C)C(=O)[C@H](C)[C@@H](O[C@@H]2O[C@H](C)C[C@H](N(C)C)[C@H]2O)[C@](C)(OC)C[C@@H](C)C(=O)[C@H](C)[C@H]2N(CCCCn3cnc(-c4cccnc4)c3)C(=O)O[C@]12C [Telithromycin]",
    "STUDY SYSTEM": "UniProtKB P08684",
    "MEASUREMENT LABEL": "KI (inactivation)",
    "OBSERVED MEASUREMENT": 979
  }
]

Continue with the molecule presented below.
Value of KI (inactivation) reported for the molecule C[C@@H](Oc1cc(-c2cnn(C3CCNCC3)c2)cnc1N)c1c(Cl)ccc(F)c1Cl [Crizotinib] is 91
